Species: Rattus norvegicus
MEASUREMENT PROTOCOL: Open TG-GATES - Regimen: Daily Repeat
Format: toxicity, organism-based, Sprague-Dawley
Set-up: regimen Daily Repeat, gender Male, age 6 weeks
EXPERIMENTAL SETUP: in vivo, po, 0 mg/kg, 72 h, tissue Kidney, route gavage, dose level Control, time 3 day
Here the recorded KIDNEY_TOTAL is given for each entry.
Please give a number only; it is taken to be in g.

Ask: State the recorded KIDNEY_TOTAL for this entry: CCCc1cc(=O)[nH]c(=S)[nH]1
Result: 1.9

Ask: Now consider CN(C)CCC(c1ccc(Cl)cc1)c1ccccn1 (stereo not drawn) and answer again.
Result: 1.9

Ask: Now consider NC1=NC(=O)C(c2ccccc2)O1 (stereo not drawn) and answer again.
Result: 2

Ask: Now consider COC(=O)C1=C(C)NC(C)=C(C(=O)OC)C1c1ccccc1[N+](=O)[O-] and answer again.
Result: 2

Ask: Now consider Nc1c2c(nc3ccccc13)CCCC2 and answer again.
Result: 1.9

Ask: Now consider Brc1ccccc1 and answer again.
Result: 1.7

Ask: Now consider CCOc1ccc(NC(C)=O)cc1 and answer again.
Result: 2

Ask: Now consider CN/C(=N/CCSCc1nc[nH]c1C)NC#N and answer again.
Result: 2

Ask: Now consider Cc1nnc2n1-c1ccc(Cl)cc1C(c1ccccc1Cl)=NC2 and answer again.
Result: 1.9

Source: ChEMBL document CHEMBL3885861
